# systemTested: hERG (Kv11.1, KCNH2) (Homo sapiens)
# Sequence (Q12809 whole entry): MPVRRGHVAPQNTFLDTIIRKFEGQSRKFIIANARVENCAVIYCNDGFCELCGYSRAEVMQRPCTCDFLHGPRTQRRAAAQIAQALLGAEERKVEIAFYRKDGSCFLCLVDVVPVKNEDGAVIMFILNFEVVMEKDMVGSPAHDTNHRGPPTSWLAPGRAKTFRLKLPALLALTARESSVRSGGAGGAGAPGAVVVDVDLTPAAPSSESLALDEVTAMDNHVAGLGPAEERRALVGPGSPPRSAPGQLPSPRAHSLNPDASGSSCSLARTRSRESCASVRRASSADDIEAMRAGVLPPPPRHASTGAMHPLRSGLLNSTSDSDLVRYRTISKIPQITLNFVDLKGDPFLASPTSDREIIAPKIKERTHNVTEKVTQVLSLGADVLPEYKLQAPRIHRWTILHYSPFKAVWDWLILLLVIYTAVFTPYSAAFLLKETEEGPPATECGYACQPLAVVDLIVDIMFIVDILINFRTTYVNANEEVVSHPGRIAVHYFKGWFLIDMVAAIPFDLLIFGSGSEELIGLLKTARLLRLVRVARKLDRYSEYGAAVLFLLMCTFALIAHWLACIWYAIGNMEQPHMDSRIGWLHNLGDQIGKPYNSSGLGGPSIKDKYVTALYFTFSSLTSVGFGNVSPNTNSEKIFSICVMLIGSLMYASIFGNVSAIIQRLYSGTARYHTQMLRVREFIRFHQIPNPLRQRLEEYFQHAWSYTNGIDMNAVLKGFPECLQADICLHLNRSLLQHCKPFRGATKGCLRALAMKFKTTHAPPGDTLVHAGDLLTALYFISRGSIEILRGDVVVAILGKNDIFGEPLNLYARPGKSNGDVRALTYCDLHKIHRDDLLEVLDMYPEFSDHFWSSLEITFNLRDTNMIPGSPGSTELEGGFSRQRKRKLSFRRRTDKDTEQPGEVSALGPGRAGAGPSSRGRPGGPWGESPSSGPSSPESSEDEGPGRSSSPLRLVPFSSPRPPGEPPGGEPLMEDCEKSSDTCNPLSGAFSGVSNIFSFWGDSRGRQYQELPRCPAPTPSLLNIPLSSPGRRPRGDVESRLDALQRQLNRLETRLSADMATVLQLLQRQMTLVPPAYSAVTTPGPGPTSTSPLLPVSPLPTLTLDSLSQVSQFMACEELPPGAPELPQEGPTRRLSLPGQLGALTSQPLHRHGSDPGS
# assayOverview: in vitro
# Description: MMV: Malaria Box compounds were tested for inhibition of the human ether a go-go related gene (hERG), Kv11.1 channel, using IonWorks 384-well patch clamp electrophysiology at 1.1uM (3 independent assay plates up to 12 cells per concentration).

- molecule: "Cc1ccc(Cl)cc1N1CCN(CCCNC(=O)C2CCN(c3nc4ccccc4[nH]3)CC2)CC1"
  systemTested: "hERG (Kv11.1, KCNH2) (Homo sapiens)"
  inhibition at 1.1 µM: "54%"
- molecule: "COc1ccc2c(=O)cc(C(Cl)(Cl)Cl)oc2c1"
  systemTested: "hERG (Kv11.1, KCNH2) (Homo sapiens)"
  inhibition at 1.1 µM: "6%"
- molecule: "CCN(CC)c1cc(C)c2cc(NC(=O)c3cccc(OC)c3)ccc2n1"
  systemTested: "hERG (Kv11.1, KCNH2) (Homo sapiens)"
  inhibition at 1.1 µM: "85%"
- molecule: "COc1ccc(-c2nc(NC(=O)CS(=O)(=O)c3ccc(F)cc3)sc2C)cc1"
  systemTested: "hERG (Kv11.1, KCNH2) (Homo sapiens)"
  inhibition at 1.1 µM: "7%"
- molecule: "COc1ccc(C(C)=O)cc1N1C(=O)C2C(C1=O)C1(c3ccccc3)C(=O)C2(c2ccccc2)C(c2ccc(C)cc2)=C1c1ccc(C)cc1 (stereo not drawn)"
  systemTested: "hERG (Kv11.1, KCNH2) (Homo sapiens)"
  inhibition at 1.1 µM: "-5%"
- molecule: "Cc1cc(NCCN2CCCCC2)c2ccc3ccccc3c2n1"
  systemTested: "hERG (Kv11.1, KCNH2) (Homo sapiens)"
  inhibition at 1.1 µM: "32%"
- molecule: "CCOc1ccc(-c2nc(NC(=O)c3cccc(S(C)(=O)=O)c3)sc2C)cc1"
  systemTested: "hERG (Kv11.1, KCNH2) (Homo sapiens)"
  inhibition at 1.1 µM: "3%"
- molecule: "CCOC(=O)c1c[nH]c2c(CC)cccc2c1=O"
  systemTested: "hERG (Kv11.1, KCNH2) (Homo sapiens)"
  inhibition at 1.1 µM: "10%"
- molecule: "O=C(NCC(c1ccsc1)N1CCCCCC1)c1ccc(C(F)(F)F)cc1 (stereo not drawn)"
  systemTested: "hERG (Kv11.1, KCNH2) (Homo sapiens)"
  inhibition at 1.1 µM: "50%"
- molecule: "CCN(CC)CCNc1ncnc2c1[nH]c1ccc(Br)cc12"
  systemTested: "hERG (Kv11.1, KCNH2) (Homo sapiens)"
  inhibition at 1.1 µM: "91%"
- molecule: "COc1ccc(CCNC(=O)c2cc(S(=O)(=O)N3CC(C)CC(C)C3)ccc2Sc2ccc(F)cc2)cc1OC (stereo not drawn)"
  systemTested: "hERG (Kv11.1, KCNH2) (Homo sapiens)"
  inhibition at 1.1 µM: "10%"
- molecule: "N=c1c2ccccc2nnn1-c1cccc(C(F)(F)F)c1"
  systemTested: "hERG (Kv11.1, KCNH2) (Homo sapiens)"
  inhibition at 1.1 µM: "-3%"
- molecule: "O=C(c1ccccc1F)N(Cc1ccc(Cl)cc1)c1ccccn1"
  systemTested: "hERG (Kv11.1, KCNH2) (Homo sapiens)"
  inhibition at 1.1 µM: "7%"

###

# systemTested: UniProtKB Q12809
# assayOverview: in vitro
# Description: MMV: Malaria Box compounds were tested for inhibition of the human ether a go-go related gene (hERG), Kv11.1 channel, using IonWorks 384-well patch clamp electrophysiology at 11.1uM (3 independent assay plates up to 12 cells per concentration).
Think of 40% as a floor: if inhibition at 11.1 µM stands on it or above, it is Condition met; beneath it, Condition not met.

- compound: "CCCCc1c(CCC)c(=N)c2ccccc2n1C"
  systemTested: "UniProtKB Q12809"
  className: "Condition met"
- compound: "COc1ccc(C(=O)C(CCC(CNC(C)(C)C)C(=O)c2ccc(OC)cc2)CNC(C)(C)C)cc1 (configuration not stated)"
  systemTested: "UniProtKB Q12809"
  className: "Condition not met"
- compound: "Oc1c2c(nc3cc(-c4ccccc4)nn13)CCCC2"
  systemTested: "UniProtKB Q12809"
  className: "Condition not met"
- compound: "CCOc1cc(CNC(C)C(O)c2ccccc2)cc(Cl)c1OCC (configuration not stated)"
  systemTested: "UniProtKB Q12809"
  className: "Condition met"
- compound: "N=c1c2ccccc2nnn1-c1cccc(C(F)(F)F)c1"
  systemTested: "UniProtKB Q12809"
  className: "Condition not met"
- compound: "Cc1ccc(F)cc1NC(=O)c1cc(Cl)ccc1Nc1ccccc1"
  systemTested: "UniProtKB Q12809"
  className: "Condition not met"
